System: soybean
Experiment: Test C postemergence
Type: in vivo, Glycine max
Settings: postemergence; 125 g ai/ha; scale 0 to 100, 0 no effect, 100 complete control
Recorded Plant response rating, Soybean, one value per entry.
measured-parameter: Plant response rating, Soybean

{"compound": "CCc1cc(C(=O)NOC(C)C)nn1Cc1ccnc(C(F)(F)F)c1 [Compound 101]", "measured-parameter": "Plant response rating, Soybean", "measured": 40}
{"compound": "CCc1cc(C(=O)NCC(F)(F)F)nn1Cc1ccnc(C(F)(F)F)c1 [Compound 78]", "measured-parameter": "Plant response rating, Soybean", "measured": 80}
{"compound": "CCOc1cc(C(=O)NC2CC2)nn1Cc1ccnc(OC(F)F)c1 [Compound 133]", "measured-parameter": "Plant response rating, Soybean", "measured": 95}
{"compound": "CCCc1cc(C(=O)NCC)nn1Cc1cc(C(F)(F)F)nn1C [Compound 129]", "measured-parameter": "Plant response rating, Soybean", "measured": 98}
{"compound": "CCNC(=O)c1cc(CC)n(Cc2ccnc(OC(F)F)c2)n1 [Compound 130]", "measured-parameter": "Plant response rating, Soybean", "measured": 65}
